System: UACC-257 melanoma
Assay: NCI tumour cell line growth inhibition, 48 h
READOUT TYPE: TGI

**Query** // query TGI value for entry "COc1ccc(-c2cc(/C=C3\C(=O)Nc4ccc(Cl)cc43)[nH]n2)cc1"
**Result** 21.4 µM

**Query** // query: COC1CC2C=C(C)/C=C/C=C/C(=O)NC(c3ccccc3)C/C=C/CCC(O)CC(=O)C2=C1O (stereo unspecified)
**Result** 0.577 µM

**Query** // query: "O=c1c(SSc2coc3cc(F)ccc3c2=O)coc2cc(F)ccc12"
**Result** 77 µM

**Query** // query: "O=C(Nc1cccc(C(F)(F)F)c1)O/N=C(/Cl)CCl"
**Result** > 100 µM

**Query** // query: COC1OC(CO)C(O)C(O)C1Br (stereo unspecified)
**Result** > 100 µM

**Query** // query: "COc1ccccc1-c1cc(=O)c2ccccc2[nH]1"
**Result** > 100 µM

**Query** // query: "C=C1C[C@@H](O)C[C@@]2(C)C[C@@H]3OC(=O)C(=C)[C@@H]3C[C@H]12"
**Result** 15.9 µM

**Query** // query: "O=[N+]([O-])/C(C(Cl)=C(Cl)Cl)=C1\NCCO1"
**Result** > 100 µM

**Query** // query: "O=[N+]([O-])c1ccc(N/N=C/c2c(O)ccc3ccccc23)nc1"
**Result** > 100 µM

**Query** // query: "N=C(N=C(N)N)N1CCN(c2ccncc2)CC1"
**Result** > 1000 µM

**Query** // query: "CC[C@@]1(O)C(=O)NCc2c1cc1n(c2=O)Cc2cc3c(N)cccc3nc2-1"
**Result** > 79.5 µM
